# Lookup of reported E00 (HOMO-LUMO gap from intercept of normalized absorption and emission spectra) keyed by entry
test: Absorption and steady-state fluorescence, fluorescence quantum yield in acetonitrile; format: physicochemical
# value in eV; strip the unit string

Recorded results for 3 molecules are shown here.
{"columns": ["query smiles", "meas value"],
 "data": [
  ["CC(=O)OCC1=C2C(C)=C(Br)C(C)=[N+]2[B-](F)(F)n2c(C)c(Br)c(C)c21", 2.25],
  ["CC(=O)OCC1=C2C(C)=C(I)C(C)=[N+]2[B-](F)(F)n2c(C)c(I)c(C)c21", 2.21],
  ["CC1=C(Br)C(C)=[N+]2C1=C(C)c1c(C)c(Br)c(C)n1[B-]2(F)F", 2.37]
]}

I'd like to know its E00 (HOMO-LUMO gap from intercept of normalized absorption and emission spectra). The molecule in question is "CC1=C(I)C(C)=[N+]2C1=C(C)c1c(C)c(I)c(C)n1[B-]2(F)F"
2.33

----------
test: Laser flash photolysis: triplet excited state decay and quenching; assay type: physicochemical; conditions: acetonitrile; calculated with oxygen solubility 2.42 mM
quantity name: kq (triplet quenching rate constant) Q = ^3O2

{"columns": ["molecule", "meas value"],
 "data": [
  ["CC1=C(I)C(C)=[N+]2C1=C(C)c1c(C)c(I)c(C)n1[B-]2(F)F", "1.82 ± 0.03 × 10^9 M^−1s^−1"],
  ["CC1=C(Br)C(C)=[N+]2C1=C(C)c1c(C)c(Br)c(C)n1[B-]2(F)F", "1.91 ± 0.02 × 10^9 M^−1s^−1"],
  ["CC1=C(I)C(C)=[N+]2C1=C(COC(=O)C1(C)CCc3c(C)c(O)c(C)c(C)c3O1)c1c(C)c(I)c(C)n1[B-]2(F)F (racemic)", "1.88 ± 0.02 × 10^9 M^−1s^−1"],
  ["CC(=O)OCC1=C2C(C)=C(Br)C(C)=[N+]2[B-](F)(F)n2c(C)c(Br)c(C)c21", "2.80 ± 0.02 × 10^9 M^−1s^−1"]
]}

I'd like to know its kq (triplet quenching rate constant) Q = ^3O2. The molecule in question is "CC(=O)OCC1=C2C(C)=C(I)C(C)=[N+]2[B-](F)(F)n2c(C)c(I)c(C)c21"
3.01 ± 0.01 × 10^9 M^−1s^−1

----------
assay: Laser flash photolysis: triplet excited state decay and quenching; assay type: physicochemical; conditions: acetonitrile, air equilibrated
# Lookup of reported kT (triplet decay rate constant) Air equilibrated keyed by entry

{"columns": ["molecule", "meas value"],
 "data": [
  ["CC(=O)OCC1=C2C(C)=C(Br)C(C)=[N+]2[B-](F)(F)n2c(C)c(Br)c(C)c21", "6.67 ± 0.04 × 10^6 s^−1"],
  ["CC1=C(I)C(C)=[N+]2C1=C(C)c1c(C)c(I)c(C)n1[B-]2(F)F", "4.35 ± 0.02 × 10^6 s^−1"],
  ["CC1=C(Br)C(C)=[N+]2C1=C(C)c1c(C)c(Br)c(C)n1[B-]2(F)F", "4.55 ± 0.03 × 10^6 s^−1"],
  ["CC1=C(I)C(C)=[N+]2C1=C(COC(=O)C1(C)CCc3c(C)c(O)c(C)c(C)c3O1)c1c(C)c(I)c(C)n1[B-]2(F)F (racemic)", "4.55 ± 0.02 × 10^6 s^−1"]
]}

Alright, here's another molecule for you.
I'd like to know its kT (triplet decay rate constant) Air equilibrated. The molecule in question is "CC(=O)OCC1=C2C(C)=C(I)C(C)=[N+]2[B-](F)(F)n2c(C)c(I)c(C)c21"
7.14 ± 0.04 × 10^6 s^−1
